study target: CYP3A4 (Homo sapiens)
Sequence (P08684 whole entry): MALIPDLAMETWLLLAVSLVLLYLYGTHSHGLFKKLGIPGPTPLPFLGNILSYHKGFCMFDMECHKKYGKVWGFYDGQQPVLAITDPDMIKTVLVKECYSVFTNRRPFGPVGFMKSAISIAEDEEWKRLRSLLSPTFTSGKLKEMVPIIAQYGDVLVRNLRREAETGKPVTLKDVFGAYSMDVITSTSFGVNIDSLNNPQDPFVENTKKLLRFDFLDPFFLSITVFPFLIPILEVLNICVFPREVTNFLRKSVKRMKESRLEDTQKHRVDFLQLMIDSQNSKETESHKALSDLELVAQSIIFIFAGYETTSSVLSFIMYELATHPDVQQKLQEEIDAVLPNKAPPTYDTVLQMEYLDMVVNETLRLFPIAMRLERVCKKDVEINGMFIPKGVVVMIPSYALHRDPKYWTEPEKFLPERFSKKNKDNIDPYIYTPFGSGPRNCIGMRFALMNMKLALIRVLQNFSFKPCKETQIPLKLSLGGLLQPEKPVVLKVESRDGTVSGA
readout: CYP3A4 IC50

Examples with their reported CYP3A4 IC50 follow.
CN(Cc1ccc(C(C)(C)C)cc1)Cc1cccc2ccccc12 = Inactive
Oc1ccc2[nH]cc(CCCCN3CC=C(c4ccccc4)CC3)c2c1 = 1.91 ± 0.48 (802 ± 30) µM
O=C1NCN(c2ccccc2)C12CCN(CCCOc1ccc(F)cc1)CC2 = 4.72 ± 0.31 (133 ± 10) µM
c1ccc2cc3c(cc2c1)-c1cccc2cccc-3c12 = Inactive
O=c1[nH]c2ccccc2n1CCCN1CCN(C(c2ccccc2)c2ccccc2)CC1 [Oxatomide] = 1.39 ± 0.16 (164 ± 14) µM

Fill in CYP3A4 IC50 for CC[N+]1(C)CCCC1.[I-] [1-Ethyl-1-methylpyrrolidinium iodide] tested with CYP3A4 (Homo sapiens).
Inactive

Send back CYP3A4 (Homo sapiens) CYP3A4 IC50 of CCCN(CCC)CCc1c[nH]c2ccccc12.Cl [N,N-Dipropyltryptamine hydrochloride] only.
Inactive

Provide measured CYP3A4 IC50 on CYP3A4 (Homo sapiens) for `CCNc1nc(Cl)nc(NC(C)(C)C)n1` please.
Inactive

// data source = paper PMC12155096
